Entries annotated with measured Activity
# test_target: Nuclear factor erythroid 2-related factor 2 (Homo sapiens)
# assay_method_text: Activation of Nrf2 in human HepG2-ARE-C8 cells assessed as induction of ARE-mediated luciferase activity at 1 uM after 24 hrs by luciferase reporter gene assay relative to control
# Type: cell-based
Give the figure by itself; no unit, no explanation.

These solved cases illustrate the format of a correct answer.
[[record]]
mol_smiles = "Clc1cccc(-c2nc(-c3ccc4nc[nH]c4c3)no2)c1"
test_target = "Nuclear factor erythroid 2-related factor 2 (Homo sapiens)"
value = 4.78

[[record]]
mol_smiles = "Fc1ccc(-c2nc(-c3ncccc3F)no2)cc1F"
test_target = "Nuclear factor erythroid 2-related factor 2 (Homo sapiens)"
value = 1.56

[[record]]
mol_smiles = "COc1cccc(-c2noc(-c3ccc(F)c(F)c3)n2)c1"
test_target = "Nuclear factor erythroid 2-related factor 2 (Homo sapiens)"
value = 5.35

[[record]]
mol_smiles = "Cc1ccc(-c2noc(-c3ccc(F)c(F)c3)n2)cc1"
test_target = "Nuclear factor erythroid 2-related factor 2 (Homo sapiens)"
value = 1.85

[[record]]
mol_smiles = "Fc1ccc(-c2nc(-c3ccc4nc[nH]c4c3)no2)cc1Br"
test_target = "Nuclear factor erythroid 2-related factor 2 (Homo sapiens)"
value = 1.89

[[record]]
mol_smiles = "Fc1ccc(-c2nc(-c3ccc4nc[nH]c4c3)no2)cc1Cl"
test_target = "Nuclear factor erythroid 2-related factor 2 (Homo sapiens)"
value = 3.22

[[record]]
mol_smiles = "Fc1cc(F)c(-c2nc(-c3ccc4nc[nH]c4c3)no2)cc1F"
test_target = "Nuclear factor erythroid 2-related factor 2 (Homo sapiens)"
value = 2.15

[[record]]
mol_smiles = "Fc1ccc(-c2nc(-c3ccc(Cl)cc3)no2)cc1F"
test_target = "Nuclear factor erythroid 2-related factor 2 (Homo sapiens)"
value = 3.85

[[record]]
mol_smiles = "Fc1ccc(-c2nc(-c3ccc4nc[nH]c4c3)no2)cc1F"
test_target = "Nuclear factor erythroid 2-related factor 2 (Homo sapiens)"
value = 12.3

[[record]]
mol_smiles = "Cc1ccnc(-c2noc(-c3ccc(F)c(F)c3)n2)c1"
test_target = "Nuclear factor erythroid 2-related factor 2 (Homo sapiens)"
value = 2.04


Response field Activity (Nuclear factor erythroid 2-related factor 2 (Homo sapiens)) for item CC(C)(C)c1ccc(-c2noc(-c3ccc(F)c(F)c3)n2)cc1 : 2.91

###

# test_target: Nuclear factor erythroid 2-related factor 2 (Homo sapiens)
# Sequence (whole entry): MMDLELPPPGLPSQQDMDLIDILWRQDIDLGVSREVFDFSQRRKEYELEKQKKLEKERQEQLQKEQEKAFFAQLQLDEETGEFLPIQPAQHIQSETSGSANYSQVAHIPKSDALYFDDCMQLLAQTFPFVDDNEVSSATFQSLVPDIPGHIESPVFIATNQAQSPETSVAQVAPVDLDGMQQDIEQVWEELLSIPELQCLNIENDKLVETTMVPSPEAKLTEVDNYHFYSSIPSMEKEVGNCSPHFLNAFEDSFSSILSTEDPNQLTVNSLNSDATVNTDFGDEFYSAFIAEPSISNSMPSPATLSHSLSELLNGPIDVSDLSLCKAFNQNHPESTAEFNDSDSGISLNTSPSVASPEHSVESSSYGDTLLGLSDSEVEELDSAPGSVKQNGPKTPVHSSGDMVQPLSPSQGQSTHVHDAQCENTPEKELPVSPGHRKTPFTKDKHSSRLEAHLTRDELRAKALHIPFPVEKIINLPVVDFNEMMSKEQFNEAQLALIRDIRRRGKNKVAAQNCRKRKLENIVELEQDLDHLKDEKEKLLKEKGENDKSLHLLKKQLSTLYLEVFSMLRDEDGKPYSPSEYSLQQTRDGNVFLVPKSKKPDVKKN
# assay_method_text: Activation of Nrf2 in human HepG2-ARE-C8 cells assessed as induction of ARE-mediated luciferase activity at 80 uM after 24 hrs by luciferase reporter gene assay relative to control
# Format: cell-based
Could you label it true (1) if measured Activity is 7 or higher, and false (0) otherwise?

Example entries begin here.
[[record]]
mol_smiles = "Fc1cccc(-c2nc(-c3ccc4nc[nH]c4c3)no2)c1F"
qualitative_label = "true (1)"

[[record]]
mol_smiles = "Fc1ccc(-c2nc(-c3ccccn3)no2)cc1F"
qualitative_label = "false (0)"

[[record]]
mol_smiles = "Cc1cccc(-c2noc(-c3ccc(F)c(F)c3)n2)n1"
qualitative_label = "false (0)"

[[record]]
mol_smiles = "CC(=O)c1ccc(-c2noc(-c3ccc(F)c(F)c3)n2)cc1"
qualitative_label = "false (0)"

[[record]]
mol_smiles = "Fc1ccc(-c2nc(-c3ccc4nc[nH]c4c3)no2)c(Cl)c1"
qualitative_label = "true (1)"


Consider now this further compound.
[ask] Would you say Cc1ccc(-c2noc(-c3ccc(F)c(F)c3)n2)cc1 shows Activity at minimum 7?
[reply] true (1)
